tested_target: EGFR wildtype (Homo sapiens, UniProt P00533)
Sequence (P00533 25-1210): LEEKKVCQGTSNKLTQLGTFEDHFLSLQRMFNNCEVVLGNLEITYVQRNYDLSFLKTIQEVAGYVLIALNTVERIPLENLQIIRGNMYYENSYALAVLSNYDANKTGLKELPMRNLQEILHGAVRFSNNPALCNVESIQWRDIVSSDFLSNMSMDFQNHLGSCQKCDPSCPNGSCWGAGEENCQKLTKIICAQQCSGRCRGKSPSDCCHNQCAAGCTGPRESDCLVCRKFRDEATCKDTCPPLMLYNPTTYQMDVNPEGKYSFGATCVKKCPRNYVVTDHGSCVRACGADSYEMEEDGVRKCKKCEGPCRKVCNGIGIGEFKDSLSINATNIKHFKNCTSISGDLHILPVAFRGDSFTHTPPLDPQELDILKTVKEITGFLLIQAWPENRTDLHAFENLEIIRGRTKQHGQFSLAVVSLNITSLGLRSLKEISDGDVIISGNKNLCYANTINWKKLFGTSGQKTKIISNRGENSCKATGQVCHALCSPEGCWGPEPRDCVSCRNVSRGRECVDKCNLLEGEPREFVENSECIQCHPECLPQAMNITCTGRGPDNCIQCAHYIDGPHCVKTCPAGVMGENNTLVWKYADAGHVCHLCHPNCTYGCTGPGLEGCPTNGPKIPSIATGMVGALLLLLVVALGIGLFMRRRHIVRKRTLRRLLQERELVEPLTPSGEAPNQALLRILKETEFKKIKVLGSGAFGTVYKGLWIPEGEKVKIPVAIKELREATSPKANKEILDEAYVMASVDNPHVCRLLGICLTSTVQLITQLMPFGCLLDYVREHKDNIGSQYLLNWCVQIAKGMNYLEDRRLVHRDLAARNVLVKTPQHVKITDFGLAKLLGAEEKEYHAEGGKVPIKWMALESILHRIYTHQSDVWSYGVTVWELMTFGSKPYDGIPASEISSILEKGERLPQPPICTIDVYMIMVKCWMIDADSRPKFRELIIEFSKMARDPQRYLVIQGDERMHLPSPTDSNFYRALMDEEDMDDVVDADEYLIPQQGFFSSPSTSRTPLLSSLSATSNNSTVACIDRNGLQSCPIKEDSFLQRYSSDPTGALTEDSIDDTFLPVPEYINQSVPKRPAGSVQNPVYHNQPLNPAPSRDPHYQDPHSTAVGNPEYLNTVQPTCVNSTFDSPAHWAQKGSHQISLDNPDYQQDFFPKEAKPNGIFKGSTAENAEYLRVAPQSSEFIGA
method_description: Biochemical EGFR kinase assay (Lance Ultra TR-FRET), wildtype
experimental_context: read-out: IC50 WT, 100 μM ATP
pIC50: −log10 of the molar value.
readout_type: pIC50

[[record]]
cpd_smiles = "CC(C)(O)[C@H]1CC[C@@H](Nc2cc(Nc3ccnc(-c4cnn(S(=O)(=O)C5CC5)c4)n3)ncc2-c2ccc(N3CC(F)(F)C3)cn2)CC1"
readout_type = "pIC50"
result = "< 5.00"


* * *

tested_target: EGFR L858R/T790M/C797S (Homo sapiens, UniProt P00533, C797S/L858R/T790M)
Sequence (P00533 25-1210 T790M/C797S/L858R): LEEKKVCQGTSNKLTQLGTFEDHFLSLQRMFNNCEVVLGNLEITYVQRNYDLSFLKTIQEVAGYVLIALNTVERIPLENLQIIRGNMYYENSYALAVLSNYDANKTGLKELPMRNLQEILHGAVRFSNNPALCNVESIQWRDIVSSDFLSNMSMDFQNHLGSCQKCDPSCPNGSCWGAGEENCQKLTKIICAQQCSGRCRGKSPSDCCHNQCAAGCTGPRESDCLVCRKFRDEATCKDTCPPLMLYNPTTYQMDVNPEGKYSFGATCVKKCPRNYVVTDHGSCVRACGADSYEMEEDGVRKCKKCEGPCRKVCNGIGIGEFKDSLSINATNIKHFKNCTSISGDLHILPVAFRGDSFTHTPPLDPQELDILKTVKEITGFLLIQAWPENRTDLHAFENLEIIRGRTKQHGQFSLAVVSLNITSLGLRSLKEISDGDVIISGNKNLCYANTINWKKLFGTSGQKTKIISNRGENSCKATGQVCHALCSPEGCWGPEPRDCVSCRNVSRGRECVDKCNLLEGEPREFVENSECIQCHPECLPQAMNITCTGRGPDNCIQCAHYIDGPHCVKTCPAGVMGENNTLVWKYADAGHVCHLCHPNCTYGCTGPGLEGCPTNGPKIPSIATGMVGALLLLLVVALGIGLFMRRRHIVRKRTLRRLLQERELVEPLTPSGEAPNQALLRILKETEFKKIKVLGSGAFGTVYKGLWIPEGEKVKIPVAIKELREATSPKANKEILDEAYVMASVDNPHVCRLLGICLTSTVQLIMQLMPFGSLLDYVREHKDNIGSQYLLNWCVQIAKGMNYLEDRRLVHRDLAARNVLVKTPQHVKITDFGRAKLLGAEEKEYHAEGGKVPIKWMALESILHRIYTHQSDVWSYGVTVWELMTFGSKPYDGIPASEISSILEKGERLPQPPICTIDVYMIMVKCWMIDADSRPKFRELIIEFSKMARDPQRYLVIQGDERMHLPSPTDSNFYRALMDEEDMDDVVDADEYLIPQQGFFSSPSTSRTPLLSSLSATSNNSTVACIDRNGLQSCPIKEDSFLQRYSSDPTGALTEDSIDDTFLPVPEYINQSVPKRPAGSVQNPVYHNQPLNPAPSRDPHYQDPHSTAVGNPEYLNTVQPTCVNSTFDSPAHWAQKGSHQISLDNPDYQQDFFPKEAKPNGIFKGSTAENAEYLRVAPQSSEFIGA
method_description: Biochemical EGFR kinase assay (Lance Ultra TR-FRET), triple mutant L858R/T790M/C797S
experimental_context: IC50 L858R/T790M/C797S (nM) 100 μM ATP, 100 μM ATP
readout_type: log10 IC50 (log10 of the value in nM)

[[record]]
cpd_smiles = "C[C@]1(O)CC[C@@H](Nc2cc(Nc3ccnc(-c4cnn(S(=O)(=O)C5CC5)c4)n3)ncc2-c2ccc(N3CCCCC3)cn2)CC1"
readout_type = "log10 IC50"
quantitative_result = 0.71

[[record]]
cpd_smiles = "CN1CCN(Cc2ccc(-c3cnc(Nc4ccnc(-c5cnn(S(=O)(=O)C6CC6)c5)n4)cc3N3CCC(C)(CO)CC3)nc2)CC1"
readout_type = "log10 IC50"
quantitative_result = 0.11

[[record]]
cpd_smiles = "C[C@]1(O)CC[C@@H](Nc2cc(Nc3ccnc(-c4cnn(S(=O)(=O)C5CC5)c4)n3)ncc2-c2cc(CN3CCOCC3)ccn2)CC1"
readout_type = "log10 IC50"
quantitative_result = -0.70

[[record]]
cpd_smiles = "CN(C)C[C@H]1CC[C@@H](Nc2cc(Nc3ccnc(-c4cnn(S(=O)(=O)C5CC5)c4)n3)ncc2-c2cnc(N3CCC(F)(F)CC3)cn2)CC1"
readout_type = "log10 IC50"
quantitative_result = 0.45

[[record]]
cpd_smiles = "C[C@]1(O)CC[C@@H](Nc2cc(Nc3ccnc(-c4cnn(S(=O)(=O)C5CC5)c4)n3)ncc2-c2ccc(N3CCCC3)cn2)CC1"
readout_type = "log10 IC50"
quantitative_result = 0.80

[[record]]
cpd_smiles = "COC1CN(c2ccc(-c3cnc(Nc4ccnc(-c5cnn(S(=O)(=O)C6CC6)c5)n4)cc3N[C@H]3CC[C@@](C)(O)CC3)nc2)C1"
readout_type = "log10 IC50"
quantitative_result = -0.40


* * *

tested_target: EGFR wildtype (Homo sapiens, UniProt P00533)
method_description: Biochemical EGFR kinase assay (Lance Ultra TR-FRET), wildtype
experimental_context: Km ATP; read-out: IC50 WT (nM) Km ATP
Description: Biochemical EGFR kinase assays were conducted using Lance Ultra time-resolved fluorescence resonance energy transfer (TR-FRET) technology from Perkin-Elmer. […] Each kinase reactions were incubated at room temperature for 1 hour and then stopped by the addition of 4 μL of stop solution (10 mM EDTA). […] After 60 minutes incubation at room temperature the LANCE signal was measured on an EnVision Multilabel Reader (Perkin-Elmer). […]
readout_type: IC50 (nM)

[[record]]
compound = "CN1CCN(Cc2ccnc(-c3cnc(Nc4ccnc(-c5cnn(S(=O)(=O)C6CC6)c5)n4)cc3N[C@H]3CC[C@@](C)(O)CC3)c2)CC1 [Example 55]"
quantitative_result = 1.9

[[record]]
compound = "CN1CCC(Oc2ccc(-c3cnc(Nc4ccnc(-c5cnn(S(=O)(=O)C6CC6)c5)n4)cc3NC3CCC(F)(F)C3)nc2)CC1 (stereo not drawn) [Example 143]"
quantitative_result = 7.9

[[record]]
compound = "CN(C)C[C@H]1CC[C@@H](Nc2cc(Nc3ccnc(-c4cnn(S(=O)(=O)C5CC5)c4)n3)ncc2-c2cc(N3CCC(F)(F)CC3)ccn2)CC1 [Example 101]"
quantitative_result = 2.2

[[record]]
compound = "COC1CN(c2ccc(-c3cnc(Nc4ccnc(-c5cnn(S(=O)(=O)C6CC6)c5)n4)cc3N[C@H]3CC[C@@H](CN(C)C)CC3)nc2)C1 [Example 93]"
quantitative_result = 0.1

[[record]]
compound = "O=S(=O)(C1CC1)n1cc(-c2nccc(Nc3cc(N[C@H]4CC[C@@H](CO)CC4)c(-c4ccc(CO)cn4)cn3)n2)cn1 [Example 22]"
quantitative_result = 0.3

[[record]]
compound = "CN1CCC(Oc2ccc(-c3cnc(Nc4ccnc(-c5cnn(CC(F)F)c5)n4)cc3N[C@H]3CC[C@@H](F)CC3)nc2)CC1 [Example 133]"
quantitative_result = 9.3


* * *

tested_target: EGFR L858R/C797S (Homo sapiens, UniProt P00533, C797S/L858R)
Sequence (P00533 25-1210 C797S/L858R): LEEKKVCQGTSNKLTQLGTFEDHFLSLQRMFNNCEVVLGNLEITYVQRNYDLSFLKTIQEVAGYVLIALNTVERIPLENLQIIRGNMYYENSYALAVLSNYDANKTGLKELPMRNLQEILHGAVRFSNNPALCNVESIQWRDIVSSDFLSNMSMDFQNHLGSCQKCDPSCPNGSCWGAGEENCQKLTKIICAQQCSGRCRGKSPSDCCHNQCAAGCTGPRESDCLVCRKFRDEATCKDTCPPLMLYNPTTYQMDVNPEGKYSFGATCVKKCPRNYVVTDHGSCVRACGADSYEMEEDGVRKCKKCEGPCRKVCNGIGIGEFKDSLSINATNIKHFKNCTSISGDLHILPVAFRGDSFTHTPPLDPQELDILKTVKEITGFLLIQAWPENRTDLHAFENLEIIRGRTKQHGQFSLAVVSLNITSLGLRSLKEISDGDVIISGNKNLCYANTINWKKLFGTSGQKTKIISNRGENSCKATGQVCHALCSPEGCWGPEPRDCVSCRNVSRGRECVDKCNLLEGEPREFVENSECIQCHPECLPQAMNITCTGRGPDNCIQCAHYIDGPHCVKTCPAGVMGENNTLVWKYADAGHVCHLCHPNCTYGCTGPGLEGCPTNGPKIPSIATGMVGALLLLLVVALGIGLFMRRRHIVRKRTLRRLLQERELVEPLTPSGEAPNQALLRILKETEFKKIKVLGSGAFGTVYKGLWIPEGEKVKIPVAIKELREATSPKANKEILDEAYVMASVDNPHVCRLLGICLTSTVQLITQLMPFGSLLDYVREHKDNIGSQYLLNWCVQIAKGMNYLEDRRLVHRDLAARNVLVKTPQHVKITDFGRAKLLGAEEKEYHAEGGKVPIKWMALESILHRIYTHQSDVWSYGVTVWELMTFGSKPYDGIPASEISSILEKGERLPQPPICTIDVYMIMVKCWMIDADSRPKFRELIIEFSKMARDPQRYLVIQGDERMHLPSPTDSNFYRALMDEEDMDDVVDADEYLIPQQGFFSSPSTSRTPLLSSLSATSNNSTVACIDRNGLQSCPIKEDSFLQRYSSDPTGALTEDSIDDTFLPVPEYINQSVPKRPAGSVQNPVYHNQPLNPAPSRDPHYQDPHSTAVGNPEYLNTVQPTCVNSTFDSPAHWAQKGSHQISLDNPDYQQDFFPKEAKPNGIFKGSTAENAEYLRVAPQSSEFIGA
method_description: Biochemical EGFR kinase assay (Lance Ultra TR-FRET), double mutant L858R/C797S
experimental_context: IC50 L858R/C797S (nM) 100 μM ATP, 100 μM ATP
readout_type: IC50 (nM)

[[record]]
compound = "C[C@]1(O)CC[C@@H](Nc2cc(Nc3ccnc(-c4cnn(S(=O)(=O)C5CC5)c4)n3)ncc2-c2ccc(N3CCC(F)(F)CC3)cn2)CC1 [Example 47]"
tested_target = "EGFR L858R/C797S (Homo sapiens, UniProt P00533, C797S/L858R)"
quantitative_result = 17.7

[[record]]
compound = "C[C@]1(O)CC[C@@H](Nc2cc(Nc3ccnc(-c4cnn(S(=O)(=O)C5CC5)c4)n3)ncc2-c2cnc(CO)cn2)CC1 [Example 60]"
tested_target = "EGFR L858R/C797S (Homo sapiens, UniProt P00533, C797S/L858R)"
quantitative_result = 4.2

[[record]]
compound = "Cc1ccnc(-c2cnc(Nc3ccnc(-c4cnn(S(=O)(=O)C5CC5)c4)n3)cc2N[C@H]2CC[C@@](C)(O)CC2)c1 [Example 12]"
tested_target = "EGFR L858R/C797S (Homo sapiens, UniProt P00533, C797S/L858R)"
quantitative_result = 11.5

[[record]]
compound = "CC(C)(O)[C@H]1CC[C@@H](Nc2cc(Nc3ccnc(-c4cnn(S(=O)(=O)C5CC5)c4)n3)ncc2-c2cc(C(F)F)ccn2)CC1 [Example 78]"
tested_target = "EGFR L858R/C797S (Homo sapiens, UniProt P00533, C797S/L858R)"
quantitative_result = 85.5

[[record]]
compound = "CN(C)C[C@H]1CC[C@@H](Nc2cc(Nc3ccnc(-c4cnn(S(=O)(=O)C5CC5)c4)n3)ncc2-c2ccc(N3CCC(F)(F)CC3)nn2)CC1 [Example 73]"
tested_target = "EGFR L858R/C797S (Homo sapiens, UniProt P00533, C797S/L858R)"
quantitative_result = 16.3

[[record]]
compound = "C[C@]1(O)CC[C@@H](Nc2cc(Nc3ccnc(-c4cnn(S(=O)(=O)C5CC5)c4)n3)ncc2-c2ccc(N3CCC(O)CC3)cn2)CC1 [Example 49]"
tested_target = "EGFR L858R/C797S (Homo sapiens, UniProt P00533, C797S/L858R)"
quantitative_result = 2.4


* * *

tested_target: EGFR wildtype (Homo sapiens)
method_description: Biochemical EGFR kinase assay (Lance Ultra TR-FRET), wildtype
experimental_context: ATP at Km; read-out: IC50 WT, Km ATP
Readings of IC50 for the listed compounds
readout_type: IC50 (nM)

[[record]]
compound = "CN1CCN(C(=O)c2ccc(-c3cnc(Nc4ccnc(-c5cnn(S(=O)(=O)C6CC6)c5)n4)cc3N[C@H]3CC[C@@H](CO)CC3)nc2)CC1 [Example 202]"
readout_type = "IC50"
quantitative_result = 0.2

[[record]]
compound = "C[C@]1(O)CC[C@@H](Nc2cc(Nc3ccnc(-c4cnn(S(=O)(=O)C5CC5)c4)n3)ncc2-c2cccc(NCCO)n2)CC1 [Example 285]"
readout_type = "IC50"
quantitative_result = 7.8

[[record]]
compound = "O=S(=O)(C1CC1)n1cc(-c2nccc(Nc3cc(N[C@H]4CC[C@@H](CO)CC4)c(-c4cccc(CC(F)(F)F)n4)cn3)n2)cn1 [Example 246]"
readout_type = "IC50"
quantitative_result = 42

[[record]]
compound = "CC(C)(O)[C@H]1CC[C@@H](Nc2cc(Nc3ccnc(-c4cnn(S(=O)(=O)C5CC5)c4)n3)ncc2-c2ccc(S(=O)(=O)N3CCOCC3)cn2)CC1 [Example 184]"
readout_type = "IC50"
quantitative_result = 15.2

[[record]]
compound = "CC(C)(O)c1ccc(-c2cnc(Nc3ccnc(-c4cnn(S(=O)(=O)C5CC5)c4)n3)cc2NC2CCN(CCF)CC2)nc1 [Example 176]"
readout_type = "IC50"
quantitative_result = 43.4

[[record]]
compound = "CN(C)CCOc1ccc(-c2cnc(Nc3ccnc(-c4cnn(S(=O)(=O)C5CC5)c4)n3)cc2N[C@H]2CC[C@@H](C(C)(C)O)CC2)nc1 [Example 210]"
readout_type = "IC50"
quantitative_result = 0.6

[[record]]
compound = "O=S(=O)(C1CC1)n1cc(-c2nccc(Nc3cc(N[C@H]4CC[C@@H](NCC(F)F)CC4)c(-c4cccc(F)n4)cn3)n2)cn1 [Example 275]"
readout_type = "IC50"
quantitative_result = 18.5

[[record]]
compound = "CC1(O)CCC(Nc2cc(Nc3ccnc(-c4cnn(S(=O)(=O)C5CC5)c4)n3)ncc2-c2cc(S(C)(=O)=O)ccn2)CC1 (stereo not drawn) [Example 198]"
readout_type = "IC50"
quantitative_result = 3.7

[[record]]
compound = "O=S(=O)(C1CC1)n1cc(-c2nccc(Nc3cc(N[C@H]4CC[C@@H](F)CC4)c(-c4cnc(OC5CCOCC5)cn4)cn3)n2)cn1 [Example 151]"
readout_type = "IC50"
quantitative_result = 1910

[[record]]
compound = "O=S(=O)(C1CC1)n1cc(-c2nccc(Nc3cc(N[C@H]4CC[C@@H](CO)CC4)c(-c4ccc(C(F)(F)CO)cn4)cn3)n2)cn1 [Example 244]"
readout_type = "IC50"
quantitative_result = 1.8

[[record]]
compound = "CC(C)(O)[C@H]1CC[C@@H](Nc2cc(Nc3ccnc(-c4cnn(S(=O)(=O)C5CC5)c4)n3)ncc2-c2ccc(S(C)(=O)=O)cn2)CC1 [Example 160]"
readout_type = "IC50"
quantitative_result = 5.1

[[record]]
compound = "CN1CCC(Oc2ccc(-c3cnc(Nc4ccnc(-c5cnn(S(=O)(=O)C6CC6)c5)n4)cc3NC3CCN(CC(F)F)CC3)nc2)CC1 [Example 258]"
readout_type = "IC50"
quantitative_result = 14.1

[[record]]
compound = "CN(C)C(=O)[C@H]1CC[C@@H](Nc2cc(Nc3ccnc(-c4cnn(S(=O)(=O)C5CC5)c4)n3)ncc2-c2ccc(C(C)(C)O)cn2)CC1 [Example 172]"
readout_type = "IC50"
quantitative_result = 0.4

[[record]]
compound = "CC(C)(O)[C@H]1CC[C@@H](Nc2cc(Nc3ccnc(-c4cnn(S(=O)(=O)C5CC5)c4)n3)ncc2-c2cc(OCCN3CCOCC3)ccn2)CC1 [Example 213]"
readout_type = "IC50"
quantitative_result = 0.6

[[record]]
compound = "CN1CCC(Oc2ccc(-c3cnc(Nc4ccnc(-c5cnn(S(=O)(=O)C6CC6)c5)n4)cc3NC3CCN(CCF)CC3)nc2)CC1 [Example 256]"
readout_type = "IC50"
quantitative_result = 61.6

[[record]]
compound = "CC(C)Nc1cc(Nc2ccnc(-c3cnn(S(=O)(=O)C4CC4)c3)n2)ncc1-c1ccc(OC2CCN(C)CC2)cn1 [Example 249]"
readout_type = "IC50"
quantitative_result = 2.8

[[record]]
compound = "CN1CCC(Oc2ccc(-c3cnc(Nc4ccnc(-c5cnn(S(=O)(=O)C6CC6)c5)n4)cc3N[C@H]3CC[C@@H](F)CC3)nn2)CC1 [Example 270]"
readout_type = "IC50"
quantitative_result = 36

[[record]]
compound = "CN(C)CC1CCC(Nc2cc(Nc3ccnc(-c4cnn(S(=O)(=O)C5CC5)c4)n3)ncc2-c2ccc(C(C)(O)C(F)(F)F)cn2)CC1 (stereo not drawn) [Example 234]"
readout_type = "IC50"
quantitative_result = 0.7

[[record]]
compound = "O=S(=O)(C1CC1)n1cc(-c2nccc(Nc3cc(N[C@H]4CCC[C@H](CO)C4)c(-c4ccc(C(O)C(F)(F)F)cn4)cn3)n2)cn1 (stereo partly drawn) [Example 228]"
readout_type = "IC50"
quantitative_result = 19.3

[[record]]
compound = "CC(F)(F)c1ccc(-c2cnc(Nc3ccnc(-c4cnn(S(=O)(=O)C5CC5)c4)n3)cc2N[C@H]2CC[C@@H](C(C)(C)O)CC2)nc1 [Example 242]"
readout_type = "IC50"
quantitative_result = 53.5

[[record]]
compound = "CC1(O)CCC(Nc2cc(Nc3ccnc(-c4cnn(S(=O)(=O)C5CC5)c4)n3)ncc2-c2cc(CN3CC(O)C3)ccn2)CC1 (stereo not drawn) [Example 288]"
readout_type = "IC50"
quantitative_result = 0.7

[[record]]
compound = "C[C@]1(O)CC[C@@H](Nc2cc(Nc3ccnc(-c4cnn(S(=O)(=O)C5CC5)c4)n3)ncc2-c2cc(OCCN3CCOCC3)ccn2)CC1 [Example 211]"
readout_type = "IC50"
quantitative_result = 6.9

[[record]]
compound = "CN(C)C[C@H]1CC[C@@H](Nc2cc(Nc3ccnc(-c4cnn(S(=O)(=O)C5CC5)c4)n3)ncc2-c2cccc(CC(F)(F)F)n2)CC1 [Example 248]"
readout_type = "IC50"
quantitative_result = 4.6

[[record]]
compound = "CC(O)(c1ccc(-c2cnc(Nc3ccnc(-c4cnn(S(=O)(=O)C5CC5)c4)n3)cc2NC2CCC(F)CC2)nc1)C(F)(F)F (stereo not drawn) [Example 265]"
readout_type = "IC50"
quantitative_result = 365

